Just for reference, ChEMBL document CHEMBL1135657 is where these values come from.

target: Acetylcholinesterase (Homo sapiens)
Sequence (P22303 whole entry): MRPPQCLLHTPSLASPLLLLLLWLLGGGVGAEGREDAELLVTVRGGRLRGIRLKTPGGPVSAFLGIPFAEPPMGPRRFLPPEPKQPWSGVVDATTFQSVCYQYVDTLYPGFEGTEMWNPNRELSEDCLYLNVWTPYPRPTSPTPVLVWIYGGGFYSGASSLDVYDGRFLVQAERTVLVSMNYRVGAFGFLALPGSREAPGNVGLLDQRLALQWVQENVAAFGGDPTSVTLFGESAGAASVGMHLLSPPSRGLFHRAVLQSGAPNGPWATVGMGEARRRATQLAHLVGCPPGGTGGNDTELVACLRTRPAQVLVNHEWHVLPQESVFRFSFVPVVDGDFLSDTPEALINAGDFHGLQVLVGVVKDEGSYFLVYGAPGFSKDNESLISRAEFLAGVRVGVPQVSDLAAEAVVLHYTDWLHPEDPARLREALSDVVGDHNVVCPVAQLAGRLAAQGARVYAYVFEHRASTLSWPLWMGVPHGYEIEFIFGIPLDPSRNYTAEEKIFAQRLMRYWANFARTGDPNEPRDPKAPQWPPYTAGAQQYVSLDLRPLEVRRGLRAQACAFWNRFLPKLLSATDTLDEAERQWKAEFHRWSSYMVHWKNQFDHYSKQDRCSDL
valueKind: IC50 (nM)
I only need the number, in nM, no unit after it.

Query: What measured IC50 is associated with C#CCNC1CCc2c(OC(=O)N(C)CC)cccc21 (stereo unspecified) on Acetylcholinesterase (Homo sapiens)?
Reply: 2150

---

biological target: Butyrylcholinesterase (Equus caballus, UniProt Q9N1N9); assay: In vitro inhibitory concentration against Butyrylcholinesterase of horse serum; value ranges from 0.64-0.89
Sequence (Q9N1N9 whole entry): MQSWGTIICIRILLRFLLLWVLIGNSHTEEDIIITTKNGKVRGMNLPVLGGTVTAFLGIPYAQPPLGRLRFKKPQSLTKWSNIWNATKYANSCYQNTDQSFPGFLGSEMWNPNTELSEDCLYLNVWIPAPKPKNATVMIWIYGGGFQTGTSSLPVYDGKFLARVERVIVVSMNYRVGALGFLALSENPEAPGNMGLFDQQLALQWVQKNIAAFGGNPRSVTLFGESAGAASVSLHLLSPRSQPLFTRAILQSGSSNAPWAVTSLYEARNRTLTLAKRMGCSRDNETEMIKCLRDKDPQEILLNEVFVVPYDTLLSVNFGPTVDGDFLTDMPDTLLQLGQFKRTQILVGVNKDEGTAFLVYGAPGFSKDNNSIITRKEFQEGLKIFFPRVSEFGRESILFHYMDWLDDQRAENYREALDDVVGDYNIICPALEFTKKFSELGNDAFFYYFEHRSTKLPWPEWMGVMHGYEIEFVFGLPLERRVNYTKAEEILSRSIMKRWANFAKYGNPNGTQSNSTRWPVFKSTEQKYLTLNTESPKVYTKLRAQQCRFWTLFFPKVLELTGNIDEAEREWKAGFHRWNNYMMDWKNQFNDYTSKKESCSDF
valueKind: pIC50
Remember, pIC50 is on a log scale: it is -log10 of the molar concentration.

Query: Which measured pIC50 value corresponds to C#CCN(C)C(C)Cc1cccc(OC(=O)N(C)CCCCCC)c1 (stereo unspecified) ?
Reply: 6.14
